Tested on: SK-MEL-2
procedure-details: NCI tumour cell line growth inhibition, 48 h
The source made the active and inactive calls. Cut-off read from the data, not from the text of the source: active = GI50 up to about 1.1 µM and inactive = higher.
Return exactly one item of class 1 (active), class 0 (inactive)

Query: What outcome does the record of this test show for O=C1O[C@H]2[C@H](O)[C@@H](OC(=O)c3cc(O)c(O)c4c3[C@@H]3C1=CC(=O)C(O)(O)C3(O)O4)[C@H](OC(=O)c1cc(O)c(O)c(O)c1)O[C@@H]2CO (stereo not given in full) ?
Result: class 0

Query: What outcome does the record of this test show for CN(C)CCNc1ncnc2[nH]c(-c3ccc4ccccc4c3)nc12 ?
Result: class 0

Query: What outcome does the record of this test show for C/C(=N\Nc1cc(CN2CCCC2)c(-c2ccc(Cl)cc2)nn1)C(=O)O ?
Result: class 0

Query: What outcome does the record of this test show for CC(C)(C)OC(=O)n1c2ccccc2c2c(=O)nc(N3CCCCC3)sc21 ?
Result: class 0

Query: What outcome does the record of this test show for COc1cc(N)c2[nH]c3c(C)ccc(C)c3c2c1 ?
Result: class 0

Query: What outcome does the record of this test show for CC[C@@]1(O)C(=O)OCc2c1cc1n(c2=O)Cc2c-1nc1ccc(O)cc1c2[Si](C)(C)C(C)(C)C ?
Result: class 1

Next:
Query: What outcome does the record of this test show for O=C(O)C1(c2ccccc2)CCCNCC1 (stereo not given) ?
Result: class 0

Query: What outcome does the record of this test show for Clc1sc(Cl)c2c1[C@H](Br)C[C@@H]2Cl ?
Result: class 0

Query: What outcome does the record of this test show for Oc1cccc2c1[nH]c1c(C3=C[C@@]4(O)CC/C=C\CCCCN5CC[C@@H]3[C@]3(CC6/C=C\CCCCN6[C@H]34)C5)nccc12 (stereo not given in full) ?
Result: class 0

Query: What outcome does the record of this test show for COc1cc([C@@H]2OCC3C(c4ccc5c(c4)OCO5)OCC32)cc(OC)c1OC (stereo not given in full) ?
Result: class 0

Query: What outcome does the record of this test show for COc1cccc(C2=NC(C(C)C)CO2)c1OC (stereo not given) ?
Result: class 0
